The reported measurements were obtained from PubChem BioAssay.

- testName: endothelial E-selectin expression blockers – imaging, HUVEC, immunofluorescence, MLSMR starter and 10KST1 sets, primary screen (AID 487);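 also: 100% = median nuclei count of all wells on the same plate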
- cond: HUVEC TNFalpha-induced E-selectin immunofluorescence imaging, at 2 µM; measured here: cell number, toxicity
reportedEndpoint: nuclei count (%)
Write the number in % without appending the unit.

Example cases with answers are listed next.
{"compound": "CC(=O)c1ccccc1NS(=O)(=O)c1c(C)nn(-c2ccccc2)c1C", "nuclei count, %": 92.7}
{"compound": "Cc1ccc2oc(C(=O)Nc3c(C)n(C)n(-c4ccccc4)c3=O)c(C)c2c1", "nuclei count, %": 108}
{"compound": "Cc1sc2nc(CN3CCN(S(=O)(=O)c4cccc5nonc45)CC3)[nH]c(=O)c2c1C", "nuclei count, %": 116}
{"compound": "O=S(=O)(c1ccccc1)c1nc(-c2cccs2)oc1NCC1CCCO1 (stereo unspecified)", "nuclei count, %": 104}
{"compound": "COc1cccc(N2CCN(CC(=O)Nc3nnc(-c4ccccc4)s3)CC2)c1", "nuclei count, %": 118}

Lookup: Any idea what its nuclei count is? The compound is `COc1ccc(CN(Cc2nc3ccccc3c(=O)[nH]2)C(=O)NC2CCCCC2)cc1`
Found: 84.3
